# measured.target: recombinant human MMP-13 (Homo sapiens)
# Construct: made in house
# test.description: In vitro metalloprotease inhibition, fluorogenic peptide assay (MMP-13)
# Format: biochemical
# conditions.used: recombinant human MMP-13, APMA activated; fluorogenic MCA peptide substrate 4 uM; pH 7.5, room temperature
property.label: IC50

Take a look at these entries with their results.
>>> result("C[C@H](CS)N(C)S(=O)(=O)c1ccc(Oc2ccccc2)cc1 [Example 40E]")
"0.61 nM"
>>> result("CC(C)Oc1ccc(-c2ccc(S(=O)(=O)N(CCN3CCOCC3)[C@@H](CS)C(N)=O)cc2)cc1")
"3.5 nM"
>>> result("C[C@H](CS)NS(=O)(=O)c1ccc(C(F)(F)F)cc1")
"2100 nM"
>>> result("CCCCCOc1ccc(S(=O)(=O)N(C)[C@H](C)CS)cc1 [Example 39C]")
"21.5 nM"
>>> result("C[C@H](CS)N(C)S(=O)(=O)c1ccc(-c2ccccn2)s1")
"7.3 nM"
>>> result("COCCOc1ccc(S(=O)(=O)N(CCN2CCOCC2)[C@H](C)CS)cc1")
"45 nM"
>>> result("CCCCOc1ccc(S(=O)(=O)N(CCN2CCOCC2)[C@H](C)CS)cc1 [Example 107]")
"2.7 nM"
>>> result("COc1ccc(S(=O)(=O)N(Cc2ccccc2)C(CS)Cc2ccccc2)cc1 (stereo not drawn)")
"5000 nM"
>>> result("C[C@H](CS)NS(=O)(=O)c1ccc(-c2ccon2)s1")
"365 nM"
>>> result("C[C@H](CS)N(CCN1CCOCC1)S(=O)(=O)c1ccc(Oc2ccc(CCC(=O)O)cc2)cc1 [Example 118]")
"14 nM"

Which IC50 reading was recorded for the compound CC(C)c1cc(C(C)C)c(S(=O)(=O)N[C@H](C)CS)c(C(C)C)c1 ?
> 10000 nM

###

# measured.target: recombinant human MMP-13 (Homo sapiens)
# Construct: made in house
# test.description: In vitro metalloprotease inhibition, fluorogenic peptide assay (MMP-13)
# Format: biochemical
# conditions.used: recombinant human MMP-13, APMA activated; fluorogenic MCA peptide substrate 4 uM; pH 7.5, room temperature
Each record's IC50 is compared with class A (below 40 nM), class B (40 nM to below 200 nM), class C (200 nM or more) to give its class.

>>> group("CCCCCN([C@H](C)CS)S(=O)(=O)c1ccc(OCCCC)cc1 [Example 48C]")
"class B"
>>> group("COc1ccc(S(=O)(=O)N(Cc2ccccc2)[C@@H](CS)C(C)C)cc1 [Example 31D]")
"class C"
>>> group("COc1cccc(-c2ccc(S(=O)(=O)N(C)[C@H](C)CS)cc2)c1")
"class B"
>>> group("C[C@H](CS)NS(=O)(=O)c1ccc(Sc2ccccc2)cc1")
"class A"
>>> group("C[C@H](CS)N(C)S(=O)(=O)c1ccc(-c2cccc(C(F)(F)F)c2)cc1")
"class C"
>>> group("CC(=O)SC[C@@H](C)N(CCN1CCOCC1)S(=O)(=O)c1ccc(Oc2ccc(CCC(=O)OC(C)(C)C)cc2)cc1")
"class C"
>>> group("C[C@H](CS)NS(=O)(=O)c1ccc(F)c(F)c1")
"class C"
>>> group("CCCCCN(CCS)S(=O)(=O)c1ccc(OC)cc1")
"class B"
>>> group("C[C@H](CS)NS(=O)(=O)c1ccc(C(C)(C)C)cc1")
"class C"
>>> group("CCCOc1ccc(S(=O)(=O)N(C)[C@H](C)CS)cc1 [Example 37C]")
"class A"

Form: Item = C[C@H](CS)N(CCN1CCCCC1)S(=O)(=O)CCCSc1ccccc1 ; Class = ?
class B

Assign a category based on measured IC50 for Cc1cc(C)c(S(=O)(=O)N[C@H](C)CS)c(C)c1 and give only the class name.
class C
